Hello, the source for this data is ChEMBL document CHEMBL2202954, in case you need it.

tested on: SF-268; assay: Cytotoxicity against human SF268 cells assessed as cellular growth at 10 uM by SRB assay; type: functional
Measure Name: Activity

Use these answered entries as a reference point.
smiles_code=O=C(Nc1nc2ccc(Cl)cc2s1)c1ccc(Cl)cc1Cl measurement_target=SF-268 result=111.47%
smiles_code=CC1(C)CCc2cc(-c3ccn(S(=O)(=O)c4cccc(C(F)(F)F)c4)n3)ccc2O1 measurement_target=SF-268 result=102.56%
smiles_code=COc1ccc2[nH]c(C(=O)NCc3ccccc3)cc2c1 measurement_target=SF-268 result=114.89%

For each entry beneath this line, provide reported Activity.
1. O=c1/c(=C/c2ccc(Cl)cc2Cl)sc2nc(-c3ccccc3)nn12
2. Cc1ccc(C(=O)/C=C2/Nc3ccc(C)cc3OC2=O)cc1
3. Cc1ccc(Cl)cc1NC(=O)c1sc2nc3c(cc2c1N)C(=O)CCC3

[out]
["107.16%", "110.95%", "74.86%"]

---

system: T47D; assay: Cytotoxicity against human T47D cells assessed as cellular growth at 10 uM by SRB assay; assay type: functional
Exercise: state measured Activity for each of the molecules provided.
Give bare numbers, in %.

Use these answered entries as a reference point.
smiles_code=O=C(Nc1ccc2oc(=O)ccc2c1)c1ccc(-c2ccc(Br)cc2)o1 measure_name=Activity quantitative_readout=100.95
smiles_code=O=c1/c(=C/c2ccc(Cl)cc2Cl)sc2nc(-c3ccccc3)nn12 measure_name=Activity quantitative_readout=90.03
smiles_code=O=C(Nc1ccc2oc(=O)ccc2c1)c1ccc(-c2ccc(Cl)c(Cl)c2)o1 measure_name=Activity quantitative_readout=81.58
smiles_code=Cc1c(OCC(=O)c2ccccc2)ccc2c1oc(=O)c1ccccc12 measure_name=Activity quantitative_readout=94.27
smiles_code=CC1(C)CCc2cc(-c3ccn(S(=O)(=O)c4cccc(C(F)(F)F)c4)n3)ccc2O1 measure_name=Activity quantitative_readout=66.31
smiles_code=O=C(NCCc1ccccc1)c1cc2cccc([N+](=O)[O-])c2[nH]1 measure_name=Activity quantitative_readout=69.69

For each entry beneath this line, provide reported Activity.
1. CC1(C)CCc2cc(-c3ccn(S(=O)(=O)c4ccc(Cl)cc4)n3)ccc2O1
2. COc1ccc(Cl)cc1C(=O)Nc1nc2ccc(Cl)cc2s1
3. Cc1ccc(CNC(=O)c2[nH]c3ccccc3c2Cl)cc1
4. Cc1ccc(C2=N/C(=C\c3ccccc3)C(=O)O2)cc1
5. Cc1ccc(NC(=O)c2sc3nc4c(cc3c2N)C(=O)CCC4)c(Br)c1

[out]
[54.12, 47.23, 84.33, 105.06, 89.73]

---

system: SW-620; assay: Cytotoxicity against human SW620 cells assessed as cellular growth at 10 uM by SRB assay; type: functional
Measure Name: Activity

smiles_code=Cc1ccc(NC(=O)c2sc3nc4c(cc3c2N)C(=O)CCC4)c(Br)c1 result=97.41%

For each entry beneath this line, provide reported Activity.
1. c1ccc(-c2nc(-c3cccs3)no2)cc1
2. O=C(NCc1ccc(Cl)cc1)c1[nH]c2ccccc2c1Cl
3. CC1(C)CCc2cc(-c3ccn(S(=O)(=O)c4ccccc4Cl)n3)ccc2O1
4. Oc1ccccc1-c1nc(-c2cccs2)no1
5. O=C(Nc1ccc2oc(=O)ccc2c1)c1ccc(-c2ccc(Br)cc2)o1

[out]
1. 101.1%
2. 98.38%
3. 79.15%
4. 95.69%
5. 107.9%
